Test system: biotinyl-Met-oxazolone
Experiment: self-aminoacylation, catalytic enhancement (BMO) (fold over background); higher = more active; k-Seq, kA / k0A0; sequences stand for … in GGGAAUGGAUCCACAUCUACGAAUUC…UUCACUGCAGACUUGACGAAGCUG
This sample holds only a part of the variants without activity.
MEASURED_PROPERTY: self-aminoacylation

Past entries and their recorded results:
RESIDUE_CODES: CCACACUUCACGCAAUCGGCC [Fam1B.1 aminoacylation ribozyme variant]
self-aminoacylation: 2.28
//
RESIDUE_CODES: GUUGCCCUGGUCAUCGAGUGA [Fam2.1 aminoacylation ribozyme variant]
self-aminoacylation: 54.2
//
RESIDUE_CODES: AUCCACCUAGGUCAACGGGUG [Fam2.2 aminoacylation ribozyme variant]
self-aminoacylation: 3.17
//
RESIDUE_CODES: AUUACCCUGGGAAUCGAGUGA [Fam2.1 aminoacylation ribozyme variant]
self-aminoacylation: 5.72
//
RESIDUE_CODES: CUACUUUUAACAAUCGGUCUG [Fam1A.1 aminoacylation ribozyme variant]
self-aminoacylation: 0.921

Given the entry AUUACCCUGGUCAUGGAGUGU [Fam2.1 aminoacylation ribozyme variant] , report its measured self-aminoacylation.
2.46

GET /values?readout=self-aminoacylation&item= AAGUUUGCUUAUAGUCGCUAG [Fam3.1 aminoacylation ribozyme variant]
0.705

May I ask what self-aminoacylation has been recorded for CUACUUCACACAAGCGGUCUG [Fam1A.1 aminoacylation ribozyme variant] ?
0.816

State the recorded self-aminoacylation for this entry: AUUCACCUAGGGCAUCUGGUG [Fam2.2 aminoacylation ribozyme variant]
2.63
